assayed_system: human thrombin (Homo sapiens, UniProt P00734)
Construct: human thrombin (a product of SIGMA Co.); purchased SIGMA Co
test_method_notes: Determination of thrombin-inhibiting activity
Format: biochemical
setup_conditions: Table 1; negative logarithm of concentration inhibiting 50% of initial rate; substrate S-2238, Tris-HCl pH 8.4; read-out: Thrombin-inhibiting activity (pIC50) (converted)
Structures can show the parent of a compound that is named as a salt.
measured_attribute: IC50

# compound, IC50
measured = [
    ("N=C(N)c1cccc(OCCNC(=O)c2ccc(CC3CCNCC3)cc2)c1 [Compound of Ex. 43, bistrifluoroacetate]", "50.1 µM"),
]

List IC50 for every entry below, keeping the order given.
1. N=C(N)c1ccc(C(=O)N[C@@H](COc2cccc(C(=N)N)c2)Cc2ccc(C(=O)O)cc2)cc1 [Compound of Ex. 90, bistrifluoroacetate]
2. N=C(N)c1cccc(OCCNC(=O)c2ccc(N3CCCC3)cc2)c1 [Compound of Ex. 18, trifluoroacetate]
3. N=C(N)c1ccc(CC(=O)C(=O)O)c(OCCNC(=O)c2ccc(N3CCCC3)cc2)c1 [Compound of Ex. 82, trifluoroacetate]
4. N=C(N)c1ccc(C(=O)N[C@@H](CCC(=O)O)COc2cccc(C(=N)N)c2)cc1 [Compound of Ex. 83, bistrifluoroacetate]
5. CC(=N)N1CCC(Oc2ccc(C(=O)NCCOc3cc(C(=N)N)ccc3CC(=O)C(=O)O)cc2)CC1 [Compound of Ex. 79, bistrifluoroacetate]

a:
1. > 251 µM
2. 39.8 µM
3. 6.31 µM
4. > 1000 µM
5. 25.1 µM

====

assayed_system: human thrombin (Homo sapiens, UniProt P00734)
Construct: human thrombin (a product of SIGMA Co.); purchased SIGMA Co
test_method_notes: Determination of thrombin-inhibiting activity
Type: biochemical
setup_conditions: Table 2; same manner as Example 94; read-out: Thrombin-inhibiting activity (pIC50) (converted)
measured_attribute: log10 of IC50 (log10 of the value in µM)
Friendly reminder: values = log10 of IC50, unit µM.

Consider the reported log10 of IC50 for these compounds:
# compound, log10 of IC50
data = [
    ("N=C(N)c1ccc(CC(=O)C(=O)O)c(OC[C@H](Cc2ccc(OC3CCNCC3)cc2)NS(=O)(=O)c2ccccc2)c1.O=C(O)C(F)(F)F.O=C(O)C(F)(F)F [Compound of Ex. 180, bistrifluoroacetate]", 0.50),
    ("N=C(N)c1ccc(C(=O)N[C@@H](COc2cccc(C(=N)N)c2)Cc2ccccc2)cc1.O=C(O)C(F)(F)F.O=C(O)C(F)(F)F [Compound of Ex. 117, bistrifluoroacetate]", 2.40),
    ("N=C(N)c1ccc(C(=O)NCCOc2cc(C(=N)N)ccc2CC(=O)C(=O)O)cc1 [Compound of Ex. 147, bistrifluoroacetate]", 1.30),
    ("CCS(=O)(=O)N[C@H](COc1cccc(C(=N)N)c1)Cc1ccc(OC2CCN(C(C)=N)CC2)cc1 [Compound of Ex. 160, bistrifluoroacetate]", 2.20),
]

Please find the next compound below.
q: Fill in: log10 of IC50 of N=C(N)c1cccc(OC[C@H](Cc2ccc(OC3CCNCC3)cc2)NS(=O)(=O)c2ccc(C(=O)O)cc2)c1.O=C(O)C(F)(F)F.O=C(O)C(F)(F)F [Compound of Ex. 167, bistrifluoroacetate] is ___
a: 2.10

Source listed as patent US7396844B1.
